- Tested on: P. falciparum NF54-pfs16-GFP late (IV-V) stage gametocytes
- CONDITION_PARAMETERS: stage: late (IV-V) gametocyte; incubation 72 h
TEST_READOUT: IC50, viable gametocyte number (nM)
Number only, in nM; omit the unit.

Example entries and their recorded answers appear below.
{"columns": ["COMPOUND", "TEST_READOUT", "READOUT_UNITS", "OBSERVED_RESULT"],
 "data": [
  ["CSc1ccccc1C(=O)Nc1nc(-c2ccccn2)cs1", "IC50, viable gametocyte number", "nM", 781],
  ["OC(CNC1CCCCC1)Cn1c2ccccc2c2ccccc21 (stereo not given)", "IC50, viable gametocyte number", "nM", 897],
  ["COc1ccc(C(=O)NC(c2ccc(Cl)cc2Cl)c2cc(Cl)c3cccnc3c2O)cc1 (stereo not given)", "IC50, viable gametocyte number", "nM", 1080]
]}

Ask: Look at this compound and give its reported IC50, viable gametocyte number. COc1ccc(C(=O)C(CCC(CNC(C)(C)C)C(=O)c2ccc(OC)cc2)CNC(C)(C)C)cc1 (stereo not given)
Reply: 1090

Ask: Look at this compound and give its reported IC50, viable gametocyte number. Cc1cc(Nc2ccc(OCc3ccccc3)cc2)nc2cc(O)ccc12
Reply: 784

Ask: Look at this compound and give its reported IC50, viable gametocyte number. Nc1ccc(-c2nc3cc(Cc4ccc5[nH]c(-c6ccc(N)cc6)nc5c4)ccc3[nH]2)cc1
Reply: 1100

Ask: Look at this compound and give its reported IC50, viable gametocyte number. Cc1cccc(-n2ncc3c(=O)[nH]c(-n4nc(C)cc4NC(=O)c4cc5ccccc5o4)nc32)c1
Reply: 1090

Ask: Look at this compound and give its reported IC50, viable gametocyte number. COc1ccc(C(C)=O)cc1N1C(=O)C2C(C1=O)C1(c3ccccc3)C(=O)C2(c2ccccc2)C(c2ccc(C)cc2)=C1c1ccc(C)cc1 (stereo not given)
Reply: 826

Ask: Look at this compound and give its reported IC50, viable gametocyte number. CN(C)CCCNc1c2ccccc2nc2ccccc12
Reply: 703

Ask: Look at this compound and give its reported IC50, viable gametocyte number. Cc1sc2ncnc(Sc3nc4ccccc4[nH]3)c2c1C
Reply: 324

Ask: Look at this compound and give its reported IC50, viable gametocyte number. Oc1ccccc1CN1CCC2(CCCN(Cc3ccccc3F)C2)C1 (stereo not given)
Reply: 673

---

This listing pairs compounds with measured IC50, viable gametocyte number.
- Tested on: P. falciparum NF54-pfs16-GFP late (IV-V) stage gametocytes
- CONDITION_PARAMETERS: stage: late (IV-V) gametocyte; incubation 72 h
Number only, in nM; omit the unit.

Example entries and their recorded answers appear below.
{"columns": ["COMPOUND", "TARGET_SYSTEM", "OBSERVED_RESULT"],
 "data": [
  ["FC(F)(F)c1cccc(Nc2nc3ccccc3nc2Nc2cccc(C(F)(F)F)c2)c1", "P. falciparum NF54-pfs16-GFP late (IV-V) stage gametocytes", 416],
  ["Oc1ccccc1CNCC12CC3CC(CC(C3)C1)C2", "P. falciparum NF54-pfs16-GFP late (IV-V) stage gametocytes", 415],
  ["CC(C)CCNCC(O)Cn1c2ccccc2c2ccccc21 (configuration not stated)", "P. falciparum NF54-pfs16-GFP late (IV-V) stage gametocytes", 1170]
]}

Ask: // lookup IC50, viable gametocyte number | system=P. falciparum NF54-pfs16-GFP late (IV-V) stage gametocytes | key= CCN(CC)CCn1c(=N)n(CC(O)c2ccc(Cl)c(Cl)c2)c2ccccc21 (configuration not stated)
Reply: 1090

Ask: // lookup IC50, viable gametocyte number | system=P. falciparum NF54-pfs16-GFP late (IV-V) stage gametocytes | key= CN1CCN(c2ccc(Nc3c4ccccc4nc4ccccc34)cc2)CC1
Reply: 1360

Ask: // lookup IC50, viable gametocyte number | system=P. falciparum NF54-pfs16-GFP late (IV-V) stage gametocytes | key= CN(C)c1ccc(C(O)(c2ccc(N(C)C)cc2)c2ccc(N(C)C)cc2)cc1
Reply: 315

Ask: // lookup IC50, viable gametocyte number | system=P. falciparum NF54-pfs16-GFP late (IV-V) stage gametocytes | key= COc1ccc(C2=C(c3ccc(OC)cc3)C3(c4ccccc4)C(=O)C2(c2ccccc2)C2C(=O)N(c4ccc(C)cc4)C(=O)C23)cc1 (configuration not stated)
Reply: 333

Ask: // lookup IC50, viable gametocyte number | system=P. falciparum NF54-pfs16-GFP late (IV-V) stage gametocytes | key= CCOC(=O)C1=C(C)N=c2sc(=Cc3cc(Cl)ccc3O)c(=O)n2C1c1ccc(OC)cc1 (configuration not stated)
Reply: 228

Ask: // lookup IC50, viable gametocyte number | system=P. falciparum NF54-pfs16-GFP late (IV-V) stage gametocytes | key= Cc1ccc2c(C)nc(Nc3nc(C)cc(-c4ccccc4)n3)nc2c1
Reply: 673

Ask: // lookup IC50, viable gametocyte number | system=P. falciparum NF54-pfs16-GFP late (IV-V) stage gametocytes | key= CCOC(=O)C1=C(C)N=c2sc(=Cc3ccccc3O)c(=O)n2C1c1ccc(OC)c2ccccc12 (configuration not stated)
Reply: 1080

Entry source: the supplement of paper PMC3842684
